src = patent US20170355757A1

Target: T1, Human C5 (human, UniProt P01031 19-1676)
T1 construct: The natural protein has a beta and an alpha chain; also called complement factor 5; complement component 5
Assay: SPR, mAb captured by anti-hFc, 25C
Assign true (1) to entries whose 100 nM Human C5 Bound (RU) meets or exceeds 90 RU; assign false (0) to the rest.

See these solved cases before continuing.
binder	qualitative-label
H4H12166P10 (antibody, human IgG4, V domains shown, human IgG4 Fc with S108P hinge mutation) VH: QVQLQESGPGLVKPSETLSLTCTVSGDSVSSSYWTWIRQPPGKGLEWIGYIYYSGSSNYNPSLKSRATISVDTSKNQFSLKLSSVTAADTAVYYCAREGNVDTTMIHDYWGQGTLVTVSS VL: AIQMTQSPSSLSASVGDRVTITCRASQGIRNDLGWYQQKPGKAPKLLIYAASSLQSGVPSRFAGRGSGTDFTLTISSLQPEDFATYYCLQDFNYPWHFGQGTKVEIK	false (0)
H4H12171P (antibody, human IgG4, V domains shown) VH: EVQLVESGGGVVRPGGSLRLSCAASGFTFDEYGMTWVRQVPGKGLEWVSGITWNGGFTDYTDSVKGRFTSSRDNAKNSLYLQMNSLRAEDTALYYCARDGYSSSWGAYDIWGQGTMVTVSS VL: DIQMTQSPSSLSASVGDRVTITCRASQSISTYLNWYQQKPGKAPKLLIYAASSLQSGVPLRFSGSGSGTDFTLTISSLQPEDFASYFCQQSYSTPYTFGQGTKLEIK	false (0)
H4H12164P (antibody, human IgG4, V domains shown) VH: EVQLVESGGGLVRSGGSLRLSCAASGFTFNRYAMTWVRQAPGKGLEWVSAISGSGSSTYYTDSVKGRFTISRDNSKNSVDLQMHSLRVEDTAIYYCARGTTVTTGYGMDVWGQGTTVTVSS VL: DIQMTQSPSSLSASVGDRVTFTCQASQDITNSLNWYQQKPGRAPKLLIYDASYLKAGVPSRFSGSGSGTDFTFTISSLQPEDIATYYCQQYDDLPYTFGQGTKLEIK	true (1)

Now for a further binder.
Is 100 nM Human C5 Bound (RU) for H4H12168P (antibody, human IgG4, V domains shown) VH: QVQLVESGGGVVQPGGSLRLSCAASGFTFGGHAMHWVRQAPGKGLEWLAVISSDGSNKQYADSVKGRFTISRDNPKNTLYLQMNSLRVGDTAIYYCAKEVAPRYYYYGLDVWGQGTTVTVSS VL: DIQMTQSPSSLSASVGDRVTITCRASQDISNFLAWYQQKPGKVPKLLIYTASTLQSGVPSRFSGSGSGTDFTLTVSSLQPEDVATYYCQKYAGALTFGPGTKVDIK at or above 90 RU?
true (1)
